Every entry's value here was drawn from ChEMBL document CHEMBL1146090.

Listed here are molecules together with their documented viability at 50 µM.
Test: Viability of HL cells at 50 uM
Type: cell-based
Details: human, read-out: Activity
REPORTED METRIC: viability at 50 µM (%)

[
  {
    "STRUCTURE": "Nc1nc(Nc2ccc(Cl)cc2)nc(-c2cc(Cl)ccc2O)n1",
    "MEASUREMENT UNITS": "%",
    "MEASURED NUMBER": 95
  },
  {
    "STRUCTURE": "O=C(Nc1cccc(-c2nc3ccccc3[nH]2)c1)c1cccs1",
    "MEASUREMENT UNITS": "%",
    "MEASURED NUMBER": 98
  },
  {
    "STRUCTURE": "N=C(NOC(=O)Nc1ccccc1)c1ccc2nonc2c1",
    "MEASUREMENT UNITS": "%",
    "MEASURED NUMBER": 100
  },
  {
    "STRUCTURE": "Nc1nc(Nc2ccccc2)nc(Nc2ccccc2)n1",
    "MEASUREMENT UNITS": "%",
    "MEASURED NUMBER": 83.4
  },
  {
    "STRUCTURE": "O=C(Nc1cccc(-c2nc3ccccc3[nH]2)c1)c1ccccc1",
    "MEASUREMENT UNITS": "%",
    "MEASURED NUMBER": 95.5
  },
  {
    "STRUCTURE": "c1ccc(-c2cc3ncnc(NCc4ccc5c(c4)OCO5)c3s2)cc1",
    "MEASUREMENT UNITS": "%",
    "MEASURED NUMBER": 98.2
  },
  {
    "STRUCTURE": "O=C(Nc1ccc2c(c1)OCCO2)c1cccc(COc2cc(Cl)ccc2Cl)c1",
    "MEASUREMENT UNITS": "%",
    "MEASURED NUMBER": 86.2
  },
  {
    "STRUCTURE": "N=C(NOC(=O)Nc1cccc(Cl)c1)c1ccc2nonc2c1",
    "MEASUREMENT UNITS": "%",
    "MEASURED NUMBER": 99.3
  }
]

* * *

System: Chlamydia pneumoniae
Test: Antibacterial activity against Chlamydia pneumoniae in HL cells at 5 uM
Format: functional
Listed here are molecules together with their documented inhibition at 5 µM.
REPORTED METRIC: inhibition at 5 µM (%)

[
  {
    "STRUCTURE": "Nc1nc(Nc2ccc(Cl)cc2)nc(-c2cc(Cl)ccc2O)n1",
    "MEASUREMENT UNITS": "%",
    "MEASURED NUMBER": 76
  },
  {
    "STRUCTURE": "c1ccc(-c2cc3ncnc(NCc4ccc5c(c4)OCO5)c3s2)cc1",
    "MEASUREMENT UNITS": "%",
    "MEASURED NUMBER": 58.8
  },
  {
    "STRUCTURE": "N=C(NOC(=O)Nc1cccc(Cl)c1)c1ccc2nonc2c1",
    "MEASUREMENT UNITS": "%",
    "MEASURED NUMBER": 6.8
  },
  {
    "STRUCTURE": "O=C(Nc1cccc(-c2nc3ccccc3[nH]2)c1)c1cccs1",
    "MEASUREMENT UNITS": "%",
    "MEASURED NUMBER": 41.2
  },
  {
    "STRUCTURE": "N=C(NOC(=O)Nc1ccccc1)c1ccc2nonc2c1",
    "MEASUREMENT UNITS": "%",
    "MEASURED NUMBER": 0.2
  },
  {
    "STRUCTURE": "O=C(Nc1ccc2c(c1)OCCO2)c1cccc(COc2cc(Cl)ccc2Cl)c1",
    "MEASUREMENT UNITS": "%",
    "MEASURED NUMBER": 15.3
  },
  {
    "STRUCTURE": "O=C(Nc1cccc(-c2nc3ccccc3[nH]2)c1)c1ccccc1",
    "MEASUREMENT UNITS": "%",
    "MEASURED NUMBER": 19.7
  },
  {
    "STRUCTURE": "Nc1nc(Nc2ccccc2)nc(Nc2ccccc2)n1",
    "MEASUREMENT UNITS": "%",
    "MEASURED NUMBER": 0
  }
]
